Recorded Metric: melting point

# count of solved cases: 3
Compound Structure: Nc1cc(-c2cccnc2)no1
Recorded Value: 174 to 176 °C

Compound Structure: O=C(CC(=O)Nc1cc(Cl)ccc1Cl)Nc1cc(Cl)ccc1Cl
Recorded Value: 226 to 228 °C

Compound Structure: CCN(C(C)=O)c1nc(CCl)cs1
Recorded Value: 82 to 84 °C

Noted for `Cc1ccccc1Nc1nnc(S)s1` : its melting point reads 230 to 232 °C

Noted for `Cc1csc(=O)n1CCC(=O)O` : its melting point reads 108 to 110 °C

Noted for `Nc1ccc(S(=O)(=O)C(F)(F)F)cc1N` : its melting point reads 109 to 111 °C

Noted for `COc1nc(C)ccc1C(=O)O` : its melting point reads 107 to 109 °C

* * *

Recorded Metric: melting point

# count of solved cases: 5
Compound: O=C(O)c1c[nH]c2cccc([N+](=O)[O-])c12
Recorded Value: 170 to 172 °C

Compound: CCOC(=O)c1c(-c2ccccc2)csc1NC(=O)CCCl
Recorded Value: 64 to 66 °C

Compound: CS(=O)(=O)Cc1c(N)cccc1F
Recorded Value: 129 to 131 °C

Compound: N#Cc1ccc(S(=O)(=O)Cl)c([N+](=O)[O-])c1
Recorded Value: 119 to 121 °C

Compound: O=C(O)CCS(=O)(=O)C1CCCC1
Recorded Value: 98 to 100 °C

In the following, a different compound is considered.
Noted for `Nc1ccc(-c2nc3ccccc3[nH]2)cn1` : its melting point reads 352 to 354 °C

* * *

Consider the following compounds and their measured melting point readings.

# count of solved cases: 5
Compound: O=C1NC(=O)C(c2cccc(Br)c2)N1 (centres undefined)
Recorded Value: 185 to 187 °C

Compound: CC1(C)CC(=O)c2cncnc2C1
Recorded Value: 67 to 69 °C

Compound: O=C1CN(c2ccccc2)C(=O)N1
Recorded Value: 190 to 192 °C

Compound: NNS(=O)(=O)c1ccc(OC(F)(F)F)cc1
Recorded Value: 105 to 107 °C

Compound: CS(=O)(=O)N1CCN(CCN)CC1
Recorded Value: 10 to 12 °C

Noted for `Cc1cc2c(Cl)nccc2o1` : its melting point reads 38 to 40 °C

Noted for Cc1cc(C(N)C(=O)O)ccc1Cl (centres undefined) : its melting point reads 218 to 220 °C

Noted for `Cn1c(O)nnc1S` : its melting point reads 216 to 218 °C

Noted for `CCOc1nnc(Cl)c2ccccc12` : its melting point reads 80 to 82 °C

Noted for `Nc1ccc(NC(=O)c2ccoc2)cc1C(F)(F)F` : its melting point reads 121 to 123 °C

Noted for `O=C(O)CCCCCc1ccc(O)cc1` : its melting point reads 104 to 106 °C

Noted for `COc1ccc(C)cc1CC(=O)O` : its melting point reads 131 to 133 °C

* * *

Recorded Metric: melting point

# count of solved cases: 5
Compound: COC(=O)c1cc(C=O)c[nH]1
Recorded Value: 124 to 126 °C
//
Compound: CCOC(=O)c1cnn(-c2ccc(C(F)(F)F)cn2)c1C(F)(F)F
Recorded Value: 98 to 100 °C
//
Compound: NNC(=O)CCc1ccco1
Recorded Value: 72 to 74 °C
//
Compound: CS(=O)(=O)Cc1ccc(C(=O)O)o1
Recorded Value: 186 to 188 °C
//
Compound: O=C(O)c1ccc(=O)n(-c2cccc(Br)c2)c1
Recorded Value: 279 to 281 °C

Noted for O=Cc1cnn(C2CCS(=O)(=O)C2)c1 (configuration not stated) : its melting point reads 111 to 113 °C

* * *

Recorded Metric: melting point

Compound: NC(CC(=O)NC1CCCC1)=NO
melting point: 119 to 121 °C
--
Compound: CC1(C)C(O)CC1O (stereo unspecified)
melting point: 104 to 106 °C
--
Compound: Cc1c(Br)cc(S(=O)(=O)Cl)cc1C(=O)O
melting point: 167 to 169 °C

Noted for `CNS(=O)(=O)c1cccc(C(=O)O)c1` : its melting point reads 209 to 211 °C

Noted for CC(C)C1OC(N)=NC1=O (stereo unspecified) : its melting point reads 219 to 221 °C

Noted for `Cc1nn(-c2ccc(Br)cc2)cc1C=O` : its melting point reads 111 to 113 °C

Noted for `O=Cc1cc(C23CC4CC(CC(C4)C2)C3)n[nH]1` : its melting point reads 134 to 136 °C

Noted for NC1CCCS(=O)(=O)c2ccccc21 (stereo unspecified) : its melting point reads 115 to 117 °C

Noted for `CCc1ccc(-c2csc(N)n2)s1` : its melting point reads 92 to 94 °C

* * *

Consider the following compounds and their measured melting point readings.

# count of solved cases: 3
Compound: CC(OCc1ccccc1)C(=O)O (centres undefined)
Recorded Value: 51 to 53 °C
--
Compound: O=C(O)c1ccc(N2CCCC2)c([N+](=O)[O-])c1
Recorded Value: 259 to 261 °C
--
Compound: Cc1nn(C)c(Oc2cccnc2)c1C=O
Recorded Value: 91 to 93 °C

In the following, a different compound is considered.
Noted for `Cc1ccc(C(=O)O)cc1S(=O)(=O)Nc1cc(Cl)ccc1F` : its melting point reads 181 to 183 °C

* * *

Consider the following compounds and their measured melting point readings.

# count of solved cases: 6
Compound: NCC(O)COc1ccc(F)cc1 (stereo unspecified)
Recorded Metric: melting point
Recorded Value: 71 to 73 °C
--
Compound: CC1CC(C)CN(S(=O)(=O)c2ccc(N)cc2)C1 (stereo unspecified)
Recorded Metric: melting point
Recorded Value: 157 to 159 °C
--
Compound: Cn1ccnc1Sc1ccc(F)cc1N
Recorded Metric: melting point
Recorded Value: 136 to 138 °C
--
Compound: Cc1n[nH]c(C)c1S(=O)(=O)N1CCC(C)CC1
Recorded Metric: melting point
Recorded Value: 178 to 180 °C
--
Compound: CCCCC1NC(=O)NC1=O (stereo unspecified)
Recorded Metric: melting point
Recorded Value: 139 to 141 °C
--
Compound: NCC(O)c1cccc(OCc2ccccc2)c1 (stereo unspecified)
Recorded Metric: melting point
Recorded Value: 107 to 109 °C

Noted for `O=C(O)c1ccc(CNC(=O)C2CCCC2)cc1` : its melting point reads 228 to 230 °C

Noted for `COc1c(C#N)cnc2ccccc12` : its melting point reads 106 to 108 °C

* * *

Recorded Metric: melting point

Compound Structure: ClCc1noc(-c2ccc(Cl)cc2)n1
melting point: 79 to 81 °C
//
Compound Structure: Nc1ccc(CC(F)(F)F)cc1
melting point: 46 to 48 °C
//
Compound Structure: ClCc1cc2c(cc1Br)OCCO2
melting point: 117 to 119 °C
//
Compound Structure: O=C(O)CCOc1ccc(F)c(Cl)c1
melting point: 82 to 84 °C
//
Compound Structure: COc1ccccc1-c1cnc(CCl)o1
melting point: 86 to 88 °C

Noted for `O=C(O)Cc1csc(-c2ccoc2)n1` : its melting point reads 128 to 130 °C

Noted for `O=C(O)c1ccc(C(=O)Nc2ccccc2)cc1` : its melting point reads 309 to 311 °C

Noted for `NC(=O)C1(Nc2ccccc2)CCCCC1` : its melting point reads 148 to 150 °C

Noted for `NNS(=O)(=O)Cc1ccc(F)cc1` : its melting point reads 144 to 146 °C

Noted for `COc1cc(C)nc(Cl)n1` : its melting point reads 35 to 37 °C

Noted for `COC(=O)c1ccc(N)cc1F` : its melting point reads 109 to 111 °C

* * *

Consider the following compounds and their measured melting point readings.

Compound: O=C(CCl)NC(c1ccccc1)c1ccc2[nH]c(C(F)(F)F)nc2c1 (stereo not given)
melting point: 193 to 195 °C
--
Compound: COc1ccc(-c2csc(C)n2)cc1
melting point: 55 to 57 °C
--
Compound: O=C1NC(=O)C(c2ccc(F)c(Br)c2)N1 (stereo not given)
melting point: 173 to 175 °C
--
Compound: CC1C=CC2C(=O)N(C(C)C)C(=O)C2C1C(=O)O (stereo not given)
melting point: 149 to 151 °C
--
Compound: CN(C)S(=O)(=O)c1ccc(F)c(N)c1
melting point: 104 to 106 °C
--
Compound: OCCc1c[nH]nc1C(F)(F)F
melting point: 90 to 92 °C
--
Compound: O=C(CO)c1ccc(F)cc1F
melting point: 95 to 97 °C
--
Compound: Nc1ccc(S(=O)(=O)Nc2ccc(Cl)cc2)cc1
melting point: 180 to 182 °C

Noted for `O=C(O)C1CCN(C(=O)CCOc2ccccc2)CC1` : its melting point reads 127 to 129 °C

Noted for `Cc1noc(C2(C)CCN(C(=O)OC(C)(C)C)CC2)n1` : its melting point reads 80 to 82 °C

* * *

Consider the following molecules and their measured melting point readings.

Molecule: O=C(O)CCc1ccc(S(=O)(=O)N2CCCC2)cc1
melting point: 137 to 139 °C
//
Molecule: O=C(O)c1cc([N+](=O)[O-])c(F)c([N+](=O)[O-])c1
melting point: 237 to 239 °C
//
Molecule: Cn1c(-c2ccccc2)cc2cc[nH]c(=O)c21
melting point: 201 to 203 °C
//
Molecule: CCOC(=O)CN(C)c1ccncc1[N+](=O)[O-]
melting point: 82 to 84 °C
//
Molecule: COc1ccc(-n2cnnc2S)cn1
melting point: 199 to 201 °C

In the following, a different molecule is considered.
Noted for `N#Cc1ccc(S(=O)(=O)N2CCC(C(=O)O)CC2)cc1` : its melting point reads 175 to 177 °C
